# protocol description: folding stability dG unfold from trypsin proteolysis; higher = more stable
Entries and their measured folding stability dG unfold follow.
measurement kind: folding stability dG unfold

- sequence content: "SAGGSAGGSAGVIRVKLKDGPVREIPLEDVPPELLNTPELLAAIEALAREAGYEIESIEASAGGSAGGSAGG [r11_467_TrMRF]"
  measurement kind: "folding stability dG unfold"
  endpoint value: "1.7 kcal/mol"
- sequence content: "SAGGSAGGIYIFFPPEDLEPIAPFTITIEVKRRDPDGDEPQPRKQTIPIRIYRAPNNNLMIEPGSAGGSAGG [r6_278_TrROS]"
  measurement kind: "folding stability dG unfold"
  endpoint value: "0.742 kcal/mol"
- sequence content: "SAGGSAGGSAGMMVVRAKIKLPNGEVLEIENMSLEEILALAKEKGYEIVDIEVVAPDEEPSAGGSAGGSAGG [r11_283_TrMRF]"
  measurement kind: "folding stability dG unfold"
  endpoint value: "4.77 kcal/mol"
- sequence content: "SPSTTVETTVTIPYTYRLPDGTVLEYNLTISVTASLTNGGISTGDLKSAIDTALAAANIPPGPPDLPLLLRS [r1_175_JUSTAS]"
  measurement kind: "folding stability dG unfold"
  endpoint value: "0.738 kcal/mol"
- sequence content: "SAGGSAPPTYTFMIPIKEIYVPDPDNGKPKPIPVEEFADFLMPKFGIDVEILDVHPDWIQITVTPDSAGGSA [r15_55_TrROS]"
  measurement kind: "folding stability dG unfold"
  endpoint value: "1.81 kcal/mol"
- sequence content: "SKPTLTLKLTVVVKDENGEKKTVTLTIPVSEEELEKLLKEIAKELGLKDVKVVKIEKNKNGFIKITVEVKSA [r9_1101_TrROS_Hall]"
  measurement kind: "folding stability dG unfold"
  endpoint value: "2.16 kcal/mol"
- sequence content: "SAGGSAGGSAGGGSMKEKKLTVGDKEIIVTYNPETGTATVKSPENSVSVFPLEELKKLLSAGGSAGGSAGGS [r10_1140_JUSTAS]"
  measurement kind: "folding stability dG unfold"
  endpoint value: "-1.25 kcal/mol"
- sequence content: "SAGGSAGGSAKKPPVYKIKIKVVNKKTKKEIEIEVEVKAGKTPEEIAKELAKKFGIEKVEIESAGGSAGGSA [r18_58_TrROS_Hall]"
  measurement kind: "folding stability dG unfold"
  endpoint value: "1.14 kcal/mol"
- sequence content: "SAGGSAGGSKTITLSAEELEKMSPEERKKLAELAEKLGAKIEVKDGKVTITIEGLTPEELKALSAGGSAGGS [r12_945_TrROS_Hall]"
  measurement kind: "folding stability dG unfold"
  endpoint value: "3.84 kcal/mol"
- sequence content: "SAGGSAGGSAGMKVEIEVYELPGGERPVKITVTYENKPKEYEKEAETEEEAEEFAKELLESAGGSAGGSAGG [r11_560_JUSTAS]"
  measurement kind: "folding stability dG unfold"
  endpoint value: "-0.237 kcal/mol"
- sequence content: "SAGSSLTTTSTTTFPGTVRVTTKTPDGKTFTLTVSVSTVPTPDGRVVPSVTTTMDPAARSSNVSPEVDRSAG [r5_462_JUSTAS]"
  measurement kind: "folding stability dG unfold"
  endpoint value: "-0.463 kcal/mol"
- sequence content: "SAGGSDGEMITYPFLLPDGYLITIWISPENGQITEIEIMPIPAPPPEPPVEPKYGRDDGNGNKKYDSAGGSA [r2_78_TrROS]"
  measurement kind: "folding stability dG unfold"
  endpoint value: "1.14 kcal/mol"
- sequence content: "SAGGSAIIVIEIEMGGKPVPIMIPIPPNMPPEDAREEIKELAKQEVRDPDGKPVRVKIEVIPPPPESAGGSA [r15_246_TrROS]"
  measurement kind: "folding stability dG unfold"
  endpoint value: "0.163 kcal/mol"
- sequence content: "SAGGSAGGSMTILEEEVVPETGLVRILVKLPNGELLELEVDPSVGVTPVKVDGKPIFDVTVDPSAGGSAGGS [r12_789_JUSTAS]"
  measurement kind: "folding stability dG unfold"
  endpoint value: "0.898 kcal/mol"
- sequence content: "SAGGSAGGKRTVQIQFPMGPQWLDKLRDAFPNVDIEELEYDEGPGWHRIKIKVDSPEKIRDFIKSAGGSAGG [r6_334_TrROS]"
  measurement kind: "folding stability dG unfold"
  endpoint value: "0.63 kcal/mol"
- sequence content: "SAGGSAGGSAGGKKVKITVVLEFDGVLLVAEAEIEFDENGKIVEIKVKVELFPAPEEGEESAGGSAGGSAGG [r7_135_TrROS_Hall]"
  measurement kind: "folding stability dG unfold"
  endpoint value: "3.21 kcal/mol"
- sequence content: "SAGGSAGGSAGVPSLEEVLAELEANPNSDAVVELPDGTRVRIRVERLPGGELRVEREEVLSAGGSAGGSAGG [r11_300_JUSTAS]"
  measurement kind: "folding stability dG unfold"
  endpoint value: "1.21 kcal/mol"
- sequence content: "NINPEFMEKIVNEIANRMNQQGWKIKKVDIEPYPNGMIDIKVNGREIEFPWPNGRWFRIKVEAKRVPPEQRS [r1_31_TrROS]"
  measurement kind: "folding stability dG unfold"
  endpoint value: "1.93 kcal/mol"
- sequence content: "SAGDNNKKPKYVYIPITINVPLPPGQTHEEAVDEVRLIMEELFPPGFKISEVKVHPEYNTVTVWIQIRSAGG [r19_81_TrROS]"
  measurement kind: "folding stability dG unfold"
  endpoint value: "2.11 kcal/mol"
- sequence content: "SAGERKVLVIENLTSEELIEAIREALEKSPPGLLILVPDPEKAEEIRRAFPGIPLVVLNRETGELVEVESAG [r5_391_TrMRF]"
  measurement kind: "folding stability dG unfold"
  endpoint value: "3 kcal/mol"
- sequence content: "SAGGPPVAEIRVTEEDPETGVVRMEATLPEAPRPVRATGTRLDPGGGTVLVTVTDPDGGPDTTTTLAASAGG [r13_337_JUSTAS]"
  measurement kind: "folding stability dG unfold"
  endpoint value: "-0.308 kcal/mol"
- sequence content: "SKIRIEVPGETIEITVPPGATVEFDEETGEITITLPDGSKRTIRLPPNAKIEVVDGEIRITIRLPPPPEPSA [r9_653_TrROS_Hall]"
  measurement kind: "folding stability dG unfold"
  endpoint value: "3.15 kcal/mol"
- sequence content: "SAGGKKEKIVEIKLLDMSYDPENKTVTFKFLVKLENGEEKVIELKISAEDFEKMSLEDILKAVKDFFESAGG [r13_512_TrMRF]"
  measurement kind: "folding stability dG unfold"
  endpoint value: "3.74 kcal/mol"
- sequence content: "SAGGKKIEIKEENGSLVIKVDGYLVTIEPIDGKLVATVVKKDKKTKKWKIVETKILTLDEILELLKKSAGGS [r8_174_TrROS_Hall]"
  measurement kind: "folding stability dG unfold"
  endpoint value: "1.91 kcal/mol"
- sequence content: "SAGGSAGGSAGGDNVLILVKLPKGYRVYSINDPEVLKAVTLKELKDELEKKTGYPVEVLPSAGGSAGGSAGG [r7_259_TrMRF]"
  measurement kind: "folding stability dG unfold"
  endpoint value: "1.48 kcal/mol"
- sequence content: "SAGGSAGGMVLRITLPNGEVIEIPLEELGLSEEERKRRLAELLAEELRKLFPGKEIKVEVVELPSAGGSAGG [r6_164_TrROS_Hall]"
  measurement kind: "folding stability dG unfold"
  endpoint value: "3.54 kcal/mol"
- sequence content: "SAGGSAGGSMKVSPASRSEFDGSRVITITVTKEGTGTTTDITIPFSPDEPDVDEVAKAIAESLSAGGSAGGS [r12_415_JUSTAS]"
  measurement kind: "folding stability dG unfold"
  endpoint value: "0.0886 kcal/mol"
